test system: Klebsiella pneumoniae ATCC 13883
Entries and their MIC values follow.
Give the value, in units of µM, as a plain number.

| SMILES_REPRESENTATION | PARAMETER | MEASURED |
| --- | --- | --- |
| CC[C@H](C)[C@H](NC(=O)[C@H](CCCNC(=N)N)NC(=O)[C@H](CCC(N)=O)NC(=O)[C@@H](NC(=O)[C@@H](NC(=O)[C@H](CCCNC(=N)N)NC(=O)[C@H](CCCCN)NC(=O)[C@H](Cc1ccccc1)NC(=O)CN)[C@@H](C)CC)C(C)C)C(=O)N[C@@H](CCCCN)C(=O)N[C@@H](CC(=O)O)C(=O)N[C@@H](Cc1ccccc1)C(=O)N[C@@H](CC(C)C)C(=O)N[C@@H](CCCNC(=N)N)C(=O)N[C@@H](CC(N)=O)C(=O)N[C@@H](CC(C)C)C(=O)N[C@H](C(N)=O)C(C)C | MIC | 3.1 |

API: the following record is the query input.
// `CC[C@H](C)[C@H](NC(=O)[C@H](CCCCN)NC(=O)[C@H](C)NC(=O)[C@H](C)NC(=O)[C@H](CC(C)C)NC(=O)[C@H](CCCN=C(N)N)NC(=O)[C@H](CC(C)C)NC(=O)[C@H](C)NC(=O)[C@H](CC(C)C)NC(=O)[C@H](CCCCN)NC(=O)[C@H](CC(C)C)NC(=O)[C@H](CCCCN)NC(=O)[C@H](CCCCN)NC(=O)[C@H](CCSC)NC(=O)[C@@H]1CCCN1)C(=O)N[C@@H](C)C(=O)N1CCC[C@H]1C(=O)N[C@H](C(=O)N[C@@H](Cc1c[nH]c2ccccc12)C(=O)O)C(C)C` : MIC value = 8

----------
test system: Escherichia coli ATCC 25922
PARAMETER: MIC (µM)
Give the value, in units of µM, as a plain number.

Fill in: Escherichia coli ATCC 25922 MIC for CC[C@H](C)[C@H](NC(=O)[C@H](CCCCN)NC(=O)[C@H](CCCCN)NC(=O)[C@H](CC(C)C)NC(=O)[C@H](CC(C)C)NC(=O)[C@H](CCCCN)NC(=O)[C@H](CCCCN)NC(=O)[C@@H](NC(=O)[C@H](CCCN=C(N)N)NC(=O)[C@H](CCCCN)NC(=O)[C@H](CC(C)C)NC(=O)[C@H](CC(C)C)NC(=O)CN)[C@@H](C)CC)C(=O)N[C@@H](CCCCN)C(=O)N[C@@H](CCCCN)C(=O)N[C@@H](CC(C)C)C(=O)N[C@@H](CC(C)C)C(N)=O [GLLKRIKKLLKKIKKLL] = 12.5

----------
tested on: Candida albicans
PARAMETER: MIC (µM)
Give the value, in units of µM, as a plain number.

| SMILES_REPRESENTATION | MEASURED |
| --- | --- |
| CC[C@H](C)[C@H](NC(=O)[C@H](CCCCN)NC(=O)[C@H](CCCCN)NC(=O)[C@@H](NC(=O)[C@H](C)NC(=O)[C@H](CO)NC(=O)[C@@H](NC(=O)[C@H](C)NC(=O)[C@H](CO)NC(=O)[C@@H]1CCCN1C(=O)[C@@H](NC(=O)[C@H](CC(C)C)NC(=O)[C@H](CO)NC(=O)[C@H](CC(C)C)NC(=O)[C@H](CC(C)C)NC(=O)[C@H](Cc1ccccc1)NC(=O)[C@H](Cc1ccccc1)NC(=O)[C@@H]1CCCN1C(=O)[C@@H](N)CC(C)C)[C@@H](C)CC)[C@@H](C)CC)[C@@H](C)CC)C(N)=O | 6.25 |

API: the following record is the query input.
Fill in: Candida albicans MIC for `CC(C)C[C@H](NC(=O)CNC(=O)[C@H](C)NC(=O)[C@@H](N)CCCCN)C(=O)N[C@@H](C)C(=O)N[C@@H](Cc1ccccc1)C(=O)N1CCC[C@H]1C(=O)N[C@H](C(=O)NCC(=O)N[C@@H](CCCN=C(N)N)C(=O)N[C@H](C(=O)N[C@@H](Cc1cnc[nH]1)C(=O)N[C@@H](CCCN=C(N)N)C(=O)N[C@@H](CC(C)C)C(=O)N[C@@H](CC(C)C)C(=O)N[C@@H](CCCN=C(N)N)C(=O)N[C@@H](CCCCN)C(=O)O)C(C)C)C(C)C` = 133
